tested on: K24384-001-R-PDC complex spheroids, viability; experiment: Anticancer human tumor K24384-001-R-PDC patient-derived pancreatic adenocarcinoma cell line growth inhibition [GQUAD]; conditions: second compound 10 µM; first compound 1 µM; active means viability on the fitted dose curve at most 10% of control; inactive means the rest
Bench note: report the call from 1 = active, -1 = inactive

>  <Compound>
COc1ccc([C@@H](O)c2cc(-c3ncnc4cc(N5CCOCC5)ccc34)c(F)cc2Cl)nn1 + Cc1cnc(CNC(=O)c2c(=O)c3ccc(N4CCCN(C)CC4)nc3n3c2sc2ccccc23)cn1

>  <Cat>
-1

$$$$
>  <Compound>
COc1cccc2c1C(=O)c1c(O)c3c(c(O)c1C2=O)CC(O)(C(=O)CO)CC3OC1CC(N)C(O)C(C)O1 (stereo not drawn) + Cc1cnc(CNC(=O)c2c(=O)c3ccc(N4CCCN(C)CC4)nc3n3c2sc2ccccc23)cn1

>  <Cat>
1

$$$$

Let us examine a further case.
Hi, do you know how CC1COCCN1c1cc(C2(O)CC3CCC(C2)O3)c2cnn(-c3ccn[nH]3)c2n1 (stereo not drawn) + Cc1[nH]c2ccc(F)cc2c1-c1nc2c3cccnc3c3ncccc3c2[nH]1 came out in this test?
-1

---

test system: K24384-001-R-PDC complex spheroids, viability; assay: Anticancer human tumor K24384-001-R-PDC cell line growth inhibition [GQUAD]; settings: second compound 0.0316 µM; first compound 0.1 µM; stronger effect = lower value;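 further: spheroids exposed to compounds for seven days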
Readout type: viability, T/C (%)
Numbers only here, please. The scale is %.

Answered examples (3):
>  <Molecule>
O=c1[nH]cc(F)c(=O)[nH]1 + CN(C)c1ccc(Nc2c3ccc(NC(=O)CCN4CCCC4)cc3nc3cc(NC(=O)CCN4CCCC4)ccc23)cc1

>  <viability, T/C (%)>
71.7

$$$$
>  <Molecule>
COc1cccc2c1C(=O)c1c(O)c3c(c(O)c1C2=O)CC(O)(C(=O)CO)CC3OC1CC(N)C(O)C(C)O1 (stereo not given) + Cc1cnc(CNC(=O)c2c(=O)c3ccc(N4CCCN(C)CC4)nc3n3c2sc2ccccc23)cn1

>  <viability, T/C (%)>
62.1

$$$$
>  <Molecule>
CC1COCCN1c1cc(C2(S(C)(=N)=O)CC2)nc(-c2ccnc3[nH]ccc23)n1 (stereo not given) + CN(C)c1ccc(Nc2c3ccc(NC(=O)CCN4CCCC4)cc3nc3cc(NC(=O)CCN4CCCC4)ccc23)cc1

>  <viability, T/C (%)>
90.1

$$$$

Output measured viability, T/C for this item: CC(C)(O)C1CCC(Nc2ccc3ncc(-c4cccc(C(F)(F)F)c4)n3n2)CC1 (stereo not given) + Cc1[nH]c2ccc(F)cc2c1-c1nc2c3cccnc3c3ncccc3c2[nH]1
104

Output measured viability, T/C for this item: COc1cccc2c1C(=O)c1c(O)c3c(c(O)c1C2=O)CC(O)(C(=O)CO)CC3OC1CC(N)C(O)C(C)O1 (stereo not given) + CN(C)c1ccc(Nc2c3ccc(NC(=O)CCN4CCCC4)cc3nc3cc(NC(=O)CCN4CCCC4)ccc23)cc1
57.3

---

system: K24384-001-R-PDC complex spheroids, viability; assay: Anticancer human tumor K24384-001-R-PDC cell line growth inhibition [GQUAD]; conditions: second compound 10 µM; first compound 0.0999 µM; stronger effect = lower value;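 further: spheroids exposed to compounds for seven days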
Let's look at some compounds and their measured viability, T/C.
Numbers only here, please. The scale is %.

>  <Compound>
CC[C@@]1(O)C(=O)OCc2c1cc1n(c2=O)Cc2cc3c(CN(C)C)c(O)ccc3nc2-1 + Cc1[nH]c2ccc(F)cc2c1-c1nc2c3cccnc3c3ncccc3c2[nH]1

>  <Target>
K24384-001-R-PDC complex spheroids, viability

>  <Measurement units>
%

>  <viability, T/C>
58.8

$$$$
>  <Compound>
Cn1ncnc1[C@H]1c2n[nH]c(=O)c3cc(F)cc(c23)N[C@@H]1c1ccc(F)cc1 + CN(C)c1ccc(Nc2c3ccc(NC(=O)CCN4CCCC4)cc3nc3cc(NC(=O)CCN4CCCC4)ccc23)cc1

>  <Target>
K24384-001-R-PDC complex spheroids, viability

>  <Measurement units>
%

>  <viability, T/C>
110

$$$$

Output measured viability, T/C for this item: Cc1[nH]c2ccccc2c1CCNCc1ccc(/C=C/C(=O)NO)cc1 + Cc1[nH]c2ccc(F)cc2c1-c1nc2c3cccnc3c3ncccc3c2[nH]1
65.4

Hey, just so you know, these numbers are from PubChem BioAssay AID2060483.
